Assay: NCI Yeast Anticancer Drug Screen. Data for the rad14 strain (AID 159);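 further: 0% = growth of vehicle-treated control cultures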
Settings: S. cerevisiae rad14 strain growth inhibition; at 3.7 µM; hits give high values
About 79,000 compounds went through this panel and 15% of them were active in at least one assay; those are over-represented in the sample as a whole.
We begin with a simple list: items and their reported growth inhibition.
The answer is to be given in %; state only the numeric part.

- O=C(Oc1ccc([N+](=O)[O-])cc1)c1ccc([N+](=O)[O-])cc1: 5
- CCN(CC)CCNc1ccc2nc(C)n3c4ccc(O)cc4c(=O)c1c23: 2
- Cc1cc(O)c(C(C)C)cc1SC#N: 0
- O=C1Oc2ccccc2C(=O)/C1=C/N1C(=O)N/C(=C\c2ccccc2Br)C1=O: 2

Input line: Suppose we examine the molecule `COc1ccc2cc3c4cc5c(cc4cc[n+]3cc2c1OC)OCO5` ; what growth inhibition value has been reported?
Output line: 46

Input line: Suppose we examine the molecule `Nc1ccc(N=Nc2ccc(-c3ccc(O)cc3)cc2)c2ccc(S(=O)(=O)O)cc12` ; what growth inhibition value has been reported?
Output line: -1
